SYSTEM NAME: Group 3 secretory phospholipase A2 (Homo sapiens) (UniProt Q9NZ20)
Sequence (Q9NZ20 whole entry, looked up): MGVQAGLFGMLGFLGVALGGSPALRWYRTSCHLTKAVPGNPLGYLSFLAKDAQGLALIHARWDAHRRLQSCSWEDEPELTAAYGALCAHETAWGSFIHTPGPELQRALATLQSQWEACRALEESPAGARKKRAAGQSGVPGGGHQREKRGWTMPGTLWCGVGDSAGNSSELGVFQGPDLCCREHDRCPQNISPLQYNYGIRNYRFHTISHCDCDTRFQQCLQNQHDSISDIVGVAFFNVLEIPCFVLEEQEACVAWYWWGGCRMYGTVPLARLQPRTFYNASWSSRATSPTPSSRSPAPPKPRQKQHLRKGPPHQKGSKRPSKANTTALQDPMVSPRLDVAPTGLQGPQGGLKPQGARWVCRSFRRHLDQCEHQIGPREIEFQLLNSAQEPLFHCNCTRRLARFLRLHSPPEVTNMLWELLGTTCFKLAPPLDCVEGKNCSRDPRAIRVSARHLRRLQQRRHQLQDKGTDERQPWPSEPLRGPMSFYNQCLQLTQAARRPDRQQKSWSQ
EXPERIMENTAL PROTOCOL: HGIII-sPLA2 enzyme inhibition – biochemical, QFRET, BODIPY PC-A2 liposome substrate, primary screen (AID 743126);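 note: 0% = median of test compound wells and 100% = no enzyme DMSO wells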
SETUP CONDITIONS: QFRET BODIPY PC-A2 liposome hydrolysis, fluorescence; at 12.2 µM; active compounds read high
Among all 370,000 compounds or so, about 2,100 (0.57%) were called active. The full list was thinned out, with actives kept by preference.
Exercise: for every item that follows, state its recorded inhibition.
Numbers only, in %.

O=C(COC(=O)c1ccccc1)Nc1ccc(Cl)cc1C(=O)c1ccccc1
21.3
COc1ccc(C(=O)C2CN(C)CC2C(=O)c2ccc(OC)cc2)cc1 (centres undefined)
-10.5
C[C@]12CCC3C(CC[C@H]4C[C@@H](O)CC[C@]34C)C1CC[C@@H]2O (some centres undefined)
21.1

Below: the item to evaluate.
Ask: // inhibition lookup, key: O=C(CCNS(=O)(=O)c1ccccc1)Nc1ccc(Cl)cc1C(=O)c1ccccc1
Result: -26.4
